Test: Second sacrificial agent testing protocol: paste air measurements with DDBS (0.0125 wt %) and rating; also: key: 0: Fail; 1: Poor; 2: Good; 3: Preferred; 4: Most preferred
Measurement name: Overall performance rating (second protocol rating)

>>> print(df.to_string())
                                    compound  measured
 0                         CCCCCCO [Hexanol]         1
 1                       CC(C)O [i-Propanol]         1
 2  CCCC[N+](CCCC)(CCCC)CCCC.[Cl-] [Tetrabutyl ammonium chloride]         3
 3     CCN1CCCC1=O [1-Ethyl-2-Pyrrolidinone]         3
 4       COc1ccc(OC)cc1 [p-Dimethoxybenzene]         2
 5        OCCc1ccccc1 [Phenyl ethyl alcohol]         3
 6  CCOCCOC(C)=O [Ethylene glycol mono-ethyl ether acetate]         2
 7                  CC(C)(C)CO [Neopentanol]         3
 8               CCCC(=O)OCC [Ethylbutyrate]         3
 9                         CCCCO [1-Butanol]         4
10                         CCCO [n-Propanol]         1
11  O=S(=O)([O-])c1ccc2ccccc2c1.[Na+] [NS, Sodium 2-Naphthalene sulfonate]         3
12    C=CN1CCCC1=O [n-Vinyl-2-pyrrolidinone]         1
13  CC(O)CN(CC(C)O)CC(C)O (stereo not shown) [Tri-iso-propanolamine]         4
14                     CC(C)(C)O [t-Butanol]         4
15  OCCOc1ccccc1 [EGPE, Ethylene glycol phenyl ether]         4
16  CCCCOCCO [Ethylene Glycol n-Butyl Ether]         4
17  CCCCCCCCCCCCCCCC(=O)OC [Methylpalmitate]         2
18                 CCN(CC)CC [Triethylamine]         4
19               CCCCCC(=O)O [Hexanoic acid]         4
20                       OCC(O)CO [Glycerol]         2
21      CCOCCO [Ethylene Glycol Ethyl Ether]         4
22      O=C(O)Cc1ccccc1 [Phenyl acetic acid]         1
23  OC[C@@H](O)[C@@H](O)[C@H](O)[C@@H](O)CO [Sorbitol]         1
24                     CCCCN [n-butyl amine]         4
25  CCCCOCCOCCO [Di-EGBE, Di-ethylene glycol butyl ether]         4
26  COCCO [EGME, Ethylene glycol methyl ether]         1
27  Cc1ccc(S(=O)(=O)O)cc1 [p-Toluene Sulfonic acid]         3
